- measured.target: Recombinant human PKC-delta (His-tagged 345-676) (Homo sapiens (Human), UniProt Q05655)
- Sequence (Q05655 345-676): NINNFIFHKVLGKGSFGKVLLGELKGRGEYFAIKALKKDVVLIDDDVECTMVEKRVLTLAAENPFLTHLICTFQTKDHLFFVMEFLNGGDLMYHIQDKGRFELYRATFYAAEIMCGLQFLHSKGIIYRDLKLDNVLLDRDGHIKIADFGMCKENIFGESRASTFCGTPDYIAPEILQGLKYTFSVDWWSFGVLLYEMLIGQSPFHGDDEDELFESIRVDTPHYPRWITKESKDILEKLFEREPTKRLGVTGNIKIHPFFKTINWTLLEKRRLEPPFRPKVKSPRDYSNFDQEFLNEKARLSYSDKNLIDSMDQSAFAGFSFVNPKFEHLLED
- procedure.details: PKC-delta inhibition assay (HTRF KinEASE kit), PKC-theta/PKC-delta selectivity
- Assay type: biochemical
- condition.summary: ratio, PKC-theta over PKC-delta, HTRF assays
experimental.readout: PKC-theta/PKC-delta selectivity

molecule	PKC-theta/PKC-delta selectivity
CC1(C)C(=O)Nc2nccc(-c3nn(CC4(F)CCCNC4)c4ccccc34)c21 (stereo not shown) [Example 44]	14

(P) CC[C@@]1(C)C(=O)Nc2nccc(-c3nn([C@H]4CCNC[C@H]4F)c4cc(F)ccc34)c21 (single isomer, unassigned) [Example 104]
(Q) CO[C@]1(C)C(=O)Nc2nccc(-c3nn([C@@H]4CCNC[C@@H]4F)c4ccccc34)c21 (single isomer, unassigned) [Example 90]
(R) CC1C(=O)Nc2nccc(-c3ccn(C4CCNCC4)c3)c21 (stereo not shown) [Example 5]
Please put the entries in order of rising PKC-theta/PKC-delta selectivity. Enter labels, ranked according to the request.
R, Q, P

* * *

- measured.target: Recombinant human PKC-theta (His-tagged 362-706) (Homo sapiens (Human))
- Sequence (Q04759 362-706): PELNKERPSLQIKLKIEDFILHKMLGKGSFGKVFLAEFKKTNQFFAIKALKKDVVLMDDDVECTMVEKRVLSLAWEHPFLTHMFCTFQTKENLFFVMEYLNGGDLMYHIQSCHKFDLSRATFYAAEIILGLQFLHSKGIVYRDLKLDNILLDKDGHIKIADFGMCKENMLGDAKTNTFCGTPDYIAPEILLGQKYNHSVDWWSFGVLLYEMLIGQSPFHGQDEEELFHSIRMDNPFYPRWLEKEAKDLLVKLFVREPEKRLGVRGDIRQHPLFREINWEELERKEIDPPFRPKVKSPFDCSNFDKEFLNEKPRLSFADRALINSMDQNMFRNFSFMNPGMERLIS
- procedure.details: PKC-theta inhibition assay (HTRF KinEASE kit)
- Format: biochemical
- condition.summary: ATP 6.5 μM, read-out: PKC-theta HTRF pIC50 (converted)
experimental.readout: IC50 (nM)

Sample answers from the record:
compound	measured.target	IC50 [nM]
CC[C@@]1(C)C(=O)Nc2nccc(-c3nn([C@H]4CCNC[C@H]4F)c4cc(F)ccc34)c21 (single isomer, unassigned)	Recombinant human PKC-theta (His-tagged 362-706) (Homo sapiens (Human))	0.794
C[C@@]1(O)C(=O)Nc2nccc(-c3nn(C4(CC#N)CCC4)c4cc(F)ccc34)c21 (single isomer, unassigned)	Recombinant human PKC-theta (His-tagged 362-706) (Homo sapiens (Human))	0.631
C[C@]1(O)C(=O)Nc2nccc(-c3nn(C4CCNCC4)c4ccccc34)c21 (single isomer, unassigned)	Recombinant human PKC-theta (His-tagged 362-706) (Homo sapiens (Human))	2
C[C@@]1(O)C(=O)Nc2nccc(-c3nn(CC4(F)CCNCC4)c4ccccc34)c21 (single isomer, unassigned)	Recombinant human PKC-theta (His-tagged 362-706) (Homo sapiens (Human))	0.631
CO[C@@]1(C)C(=O)Nc2nccc(-c3nn([C@@H]4CCNC[C@@H]4F)c4ccccc34)c21 (single isomer, unassigned)	Recombinant human PKC-theta (His-tagged 362-706) (Homo sapiens (Human))	12.6
C[C@@]1(O)C(=O)Nc2nccc(-c3nn(C4(CC#N)COC4)c4ccccc34)c21 (single isomer, unassigned)	Recombinant human PKC-theta (His-tagged 362-706) (Homo sapiens (Human))	316

(a) C[C@@]1(O)C(=O)Nc2nccc(-c3nn(C4(CC#N)CCC4)c4ccccc34)c21 (single isomer, unassigned)
(b) CO[C@]1(C)C(=O)Nc2nccc(-c3nn(CC4(F)CCNCC4)c4cc(F)ccc34)c21 (single isomer, unassigned)
In terms of reported IC50, does a or b have the smaller number? Mark your selection by writing its label.
a
(a: 0.2 nM, b: 3.16 nM)

(I) C[C@@]1(O)C(=O)Nc2nccc(-c3nn(C4(CC#N)CCC4)c4ncccc34)c21 (single isomer, unassigned)
(II) CO[C@@]1(C)C(=O)Nc2nccc(-c3nn(C4(CC#N)CCC4)c4ccccc34)c21 (single isomer, unassigned)
In terms of reported IC50, does I or II have the smaller number? Mark your selection by writing its label.
II
(II: 0.794 nM, I: 3.98 nM)

* * *

- measured.target: Recombinant human PKC-theta (His-tagged 362-706) (Homo sapiens (Human))
- procedure.details: PKC-theta inhibition assay (HTRF KinEASE kit)
- Type: biochemical
- condition.summary: ATP 6.5 μM, read-out: PKC-theta HTRF pIC50 (converted)
experimental.readout: IC50 (nM)

compound	IC50 (nM)
C[C@@]1(O)C(=O)Nc2nccc(-c3nn(C4(CC#N)CCC4)c4c(F)cccc34)c21 (single isomer, unassigned) [Example 58]	0.501
CC[C@]1(C)C(=O)Nc2nccc(-c3nn([C@@H]4CCNC[C@@H]4F)c4cc(F)ccc34)c21 (single isomer, unassigned) [Example 101]	25.1
CO[C@@]1(C)C(=O)Nc2nccc(-c3nn([C@H]4CCNC[C@H]4F)c4ccccc34)c21 (single isomer, unassigned) [Example 93]	3.98
CC[C@]1(C)C(=O)Nc2nccc(-c3nn([C@H]4CCNC[C@H]4F)c4ccc(F)cc34)c21 (single isomer, unassigned) [Example 100]	7.94

(a) CO[C@]1(C)C(=O)Nc2nccc(-c3nn(C4(CC#N)CCC4)c4ccccc34)c21 (single isomer, unassigned) [Example 81]
(b) CC[C@]1(C)C(=O)Nc2nccc(-c3nn([C@H]4CCNC[C@H]4F)c4ccccc34)c21 (single isomer, unassigned) [Example 108]
// which entry has the larger IC50 value, a or b ? Mark your selection by writing its label.
a

* * *

- Tested on: IL-2 secretion by human effector memory T cells (TEM)
- procedure.details: Effector memory T cells IL-2 release assay
- Assay type: cell-based
- condition.summary: T-cell; human CD4+ TEM cells, CD3/CD28 bead stimulation, 24 h; binned A to G; read-out: PKC-theta IL2 pIC50 (binned) (converted)
The entries below are paired with their reported IC50.

compound	measured.target	IC50
CC1(C)C(=O)Nc2nccc(-c3ccn([C@H]4CC[C@H](N)CC4)n3)c21	IL-2 secretion by human effector memory T cells (TEM)	31.6 to 100 nM
CC1(C)C(=O)Nc2nccc(-c3nn(C4(CC#N)COC4)c4ccccc34)c21	IL-2 secretion by human effector memory T cells (TEM)	> 1000 nM
CC1(C)C(=O)Nc2nccc(-c3nn(C4CCNCC4)c4cc(F)ccc34)c21	IL-2 secretion by human effector memory T cells (TEM)	31.6 to 100 nM
CC[C@]1(O)C(=O)Nc2nccc(-c3nn(C4(CC#N)CCC4)c4ccccc34)c21 (single isomer, unassigned)	IL-2 secretion by human effector memory T cells (TEM)	> 1000 nM

// map CCC1(O)C(=O)Nc2nccc(-c3nn(C4(CC#N)CCC4)c4ccccc34)c21 (stereo not drawn) to recorded IC50 (system: IL-2 secretion by human effector memory T cells (TEM))
10 to 31.6 nM

// map CC[C@]1(C)C(=O)Nc2nccc(-c3nn([C@H]4CCNC4)c4ccccc34)c21 (single isomer, unassigned) to recorded IC50 (system: IL-2 secretion by human effector memory T cells (TEM))
316 to 1000 nM

// map C[C@@]1(O)C(=O)Nc2nccc(-c3nn(CC4(F)CCNCC4)c4ccccc34)c21 (single isomer, unassigned) to recorded IC50 (system: IL-2 secretion by human effector memory T cells (TEM))
10 to 31.6 nM

// map CC1(O)C(=O)Nc2nccc(-c3nn([C@H]4CCNC[C@@H]4F)c4ccccc34)c21 (stereo partly drawn) to recorded IC50 (system: IL-2 secretion by human effector memory T cells (TEM))
31.6 to 100 nM

// map C[C@]1(O)C(=O)Nc2nccc(-c3nn(C4(CC#N)CCC4)c4cc(C(F)(F)F)ccc34)c21 (single isomer, unassigned) to recorded IC50 (system: IL-2 secretion by human effector memory T cells (TEM))
31.6 to 100 nM

// map CC1(C)C(=O)Nc2nccc(-c3nn([C@H]4CCNC4)c4cc(F)ccc34)c21 to recorded IC50 (system: IL-2 secretion by human effector memory T cells (TEM))
100 to 316 nM

// map CC1(C)C(=O)Nc2nccc(-c3nn(C4(CO)CCNC4)c4ccccc34)c21 (stereo not drawn) to recorded IC50 (system: IL-2 secretion by human effector memory T cells (TEM))
10 to 31.6 nM

// map COC1(C)C(=O)Nc2nccc(-c3nn(C4(CC#N)CCC4)c4ccccc34)c21 (stereo not drawn) to recorded IC50 (system: IL-2 secretion by human effector memory T cells (TEM))
31.6 to 100 nM

// map CC1(C)C(=O)Nc2nccc(-c3nn([C@H]4CCNC4)c4ccc(F)cc34)c21 to recorded IC50 (system: IL-2 secretion by human effector memory T cells (TEM))
316 to 1000 nM

// map CC1(C)C(=O)Nc2nccc(-c3ccn(C4CCNCC4)c3)c21 to recorded IC50 (system: IL-2 secretion by human effector memory T cells (TEM))
316 to 1000 nM

// map CC1(C)C(=O)Nc2nccc(-c3nn(C[C@]4(C)COCCN4)c4ccccc34)c21 to recorded IC50 (system: IL-2 secretion by human effector memory T cells (TEM))
316 to 1000 nM

// map COC1(C)C(=O)Nc2nccc(-c3nn(CC4(F)CCCNC4)c4ccccc34)c21 (stereo not drawn) to recorded IC50 (system: IL-2 secretion by human effector memory T cells (TEM))
316 to 1000 nM

// map CC[C@]1(C)C(=O)Nc2nccc(-c3nn([C@H]4CCNC[C@H]4F)c4ccccc34)c21 (single isomer, unassigned) to recorded IC50 (system: IL-2 secretion by human effector memory T cells (TEM))
31.6 to 100 nM

// map CC1(O)C(=O)Nc2nccc(-c3nn([C@@H]4CCNC[C@@H]4F)c4ccccc34)c21 (stereo partly drawn) to recorded IC50 (system: IL-2 secretion by human effector memory T cells (TEM))
31.6 to 100 nM

// map CN[C@]1(C)C(=O)Nc2nccc(-c3nn(C4(CC#N)CCC4)c4ccccc34)c21 (single isomer, unassigned) to recorded IC50 (system: IL-2 secretion by human effector memory T cells (TEM))
1 to 3.16 nM

// map CC[C@]1(O)C(=O)Nc2nccc(-c3nn([C@H]4CCNC[C@H]4F)c4ccccc34)c21 (single isomer, unassigned) to recorded IC50 (system: IL-2 secretion by human effector memory T cells (TEM))
> 1000 nM

// map CC1(O)C(=O)Nc2nccc(-c3cn([C@@H]4CCNC4)c4ccccc34)c21 (stereo partly drawn) to recorded IC50 (system: IL-2 secretion by human effector memory T cells (TEM))
316 to 1000 nM

The reported measurements were obtained from patent US20240239794A1.
